- PROTOCOL: Tmax in human plasma expressing CYP2C8*2 allele carrier polymorphism at 80 mg by LC/MS/MS analysis
- Assay type: ADME, organism-based
PARAMETER_MEASURED: Tmax (h)
Report the value in h with no unit label.

## Task Would you kindly share the measured Tmax for CCCc1nc2c(C)cc(-c3nc4ccccc4n3C)cc2n1Cc1ccc(-c2ccccc2C(=O)O)cc1 ?
## Result 1.3

###

- PROTOCOL: AUC in human plasma expressing CYP2C9*3 allele carrier polymorphism at 50 mg by LC/MS/MS analysis
- Assay type: ADME, organism-based
PARAMETER_MEASURED: AUC (ng·h/mL)
Report the value in ng·h/mL with no unit label.

## Task Would you kindly share the measured AUC for CCCCc1nc(Cl)c(CO)n1Cc1ccc(-c2ccccc2-c2nn[nH]n2)cc1 [LOSARTAN] ?
## Result 637
